- System: α-glucosidase
- experiment: α-Glucosidase inhibition assay (pNPG)
- Assay type: biochemical
- experimental_parameters: at a concentration of 50 µM
Marks after values point to notes of the source that are not given here.
Measured Inhibitory Rate (%) by item
endpoint_label: Inhibitory Rate (%)

- molecule: "COc1cc(C2Oc3c(OC)cc(CCCO)cc3C2CO)ccc1O (centres unmarked)"
  assay_result: "57.40 ± 1.32 ^bc %"
- molecule: "Cc1cc2c(cc1O)C(=O)c1ccccc1C2=O [Compound 14, 3-hydroxy-2-methyl-9,10-anthraquinone]"
  assay_result: "20.03 ± 2.44 ^c %"
- molecule: "C[C@@H]1O[C@@H](O[C@@H]2[C@@H](O)[C@H](OCCc3ccc(O)c(O)c3)O[C@H](CO)[C@H]2OC(=O)/C=C/c2ccc(O)c(O)c2)[C@H](O)[C@H](O)[C@H]1O [Compound 15, verbascoside]"
  assay_result: "18.30 ± 2.22 ^cd %"
- molecule: "O=C1c2cc(CO)ccc2C(=O)c2c(O)cccc21 [Compound 10, 1-hydroxy-6-hydroxymethyl anthraquinone]"
  assay_result: "1.77 ± 4.08 ^e %"
- molecule: "COc1cc(C(O)C(CO)Oc2c(OC)cc(/C=C/CO)cc2OC)cc(OC)c1O (centres unmarked)"
  assay_result: "40.30 ± 0.76 ^c %"
- molecule: "O=c1cc(-c2ccc(O)c(O)c2)oc2cc(O)cc(O)c12"
  assay_result: "12.96 ± 2.08 ^d %"
- molecule: "COc1cc(C)cc2c1C(=O)c1c(O)cc(O)cc1C2=O"
  assay_result: "53.04 ± 0.36 ^bc %"
- molecule: "COc1cc(O)c2c(c1O)C(=O)c1cc(C)ccc1C2=O"
  assay_result: "20.58 ± 1.30 ^c %"
- molecule: "O=C(O)C1OC(Oc2cc(-c3cc(=O)c4c(O)cc(O)cc4o3)ccc2O)C(O)C(O)C1O (centres unmarked) [Compound 11, luteolin-3′-O-glucuronide]"
  assay_result: "4.57 ± 4.37 ^e %"
- molecule: "COC(=O)c1cc(O)c2c(c1)C(=O)c1ccccc1C2=O"
  assay_result: "13.84 ± 0.93 ^d %"
- molecule: "O=C(O)c1c[nH]c2ccccc12"
  assay_result: "12.53 ± 0.76 ^d %"
- molecule: "COc1ccc(-c2cc(=O)c3c(O)cc(O[C@@H]4O[C@H](C(=O)O)[C@@H](O)[C@H](O)[C@H]4O)cc3o2)cc1 [Compound 2, acacetin-7-O-β-glucuronide]"
  assay_result: "31.35 ± 6.46 ^c %"
- molecule: "Cc1ccc2c(c1O)C(=O)c1cccc(O)c1C2=O"
  assay_result: "3.13 ± 4.06 ^e %"
- molecule: "COc1cc(O)c2c(=O)c(O)c(-c3ccc(O)c(O)c3)oc2c1"
  assay_result: "85.13 ± 0.81 ^ab %"
